Cited source for all entries: patent US10556898B2

- TARGET OF ASSAY: GST-tagged human ROCK2 catalytic domain 1-553 (Homo sapiens, UniProt O75116)
- Construct: GST-tagged human ROCK2 catalytic domain 1-553 from Carna Biosciences (Cat #01-110); purchased Carna Biosciences 01-110; host or cells: baculovirus expression system
- Sequence (O75116 1-553): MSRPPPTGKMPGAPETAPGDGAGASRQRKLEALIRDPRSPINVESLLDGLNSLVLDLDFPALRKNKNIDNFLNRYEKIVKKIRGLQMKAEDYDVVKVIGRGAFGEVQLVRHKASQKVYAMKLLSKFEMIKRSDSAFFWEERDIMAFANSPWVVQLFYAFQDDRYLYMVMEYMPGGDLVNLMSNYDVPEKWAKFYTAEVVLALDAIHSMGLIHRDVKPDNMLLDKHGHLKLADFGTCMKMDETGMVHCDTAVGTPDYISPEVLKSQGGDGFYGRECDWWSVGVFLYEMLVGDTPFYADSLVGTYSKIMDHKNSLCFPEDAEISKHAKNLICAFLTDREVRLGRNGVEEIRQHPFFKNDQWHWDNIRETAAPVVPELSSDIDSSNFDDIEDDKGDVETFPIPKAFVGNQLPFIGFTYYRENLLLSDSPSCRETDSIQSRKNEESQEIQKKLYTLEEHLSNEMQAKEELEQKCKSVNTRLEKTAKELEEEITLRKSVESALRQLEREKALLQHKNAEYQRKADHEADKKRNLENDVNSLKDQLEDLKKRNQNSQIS
- TEST SUMMARY: Isolated Enzyme Assay, ROCK2 (LANCE Ultra ULight-CREBtide FRET)
- Format: biochemical
- REPORTED CONDITIONS: isolated enzyme assay; 30 μM highest concentration tested; read-out: Results from Isolated Enzyme Assay IC50 (μM) ROCK2
- Method: Exemplary compounds were tested for ability to inhibit Rho-associated protein kinase isoform 1 (ROCK1) and Rho-associated protein kinase isoform 2 (ROCK2). Assay procedures and results are described below. […] Protein constructs were purified from a baculovirus expression system. […] The fluorescence resonance energy transfer (FRET) signals were read and analyzed on an Envision™ 2103 Multilabel Reader (Perkin Elmer). […]
ATTRIBUTE MEASURED: IC50

Below are worked cases with known answers.
{"COMPOUND": "O=C(c1cccc(-c2nsc(Nc3ccc4[nH]ncc4c3Cl)n2)c1)N1CCOCC1", "IC50": "1 to 15 µM"}
{"COMPOUND": "O=C(Nc1cncc(-c2nsc(Nc3ccc4[nH]ncc4c3Cl)n2)c1)c1cnco1", "IC50": "< 1 µM"}
{"COMPOUND": "Cc1cc(NC(=O)c2cn(C)cn2)cc(-c2nsc(Nc3ccc4[nH]ncc4c3Cl)n2)n1", "IC50": "< 1 µM"}

Consider the compound Cn1ccnc1-c1cccc(-c2nsc(Nc3ccc4[nH]ncc4c3Cl)n2)c1 and give its measured IC50.
< 1 µM

Consider the compound Cn1cc(-c2nsc(Nc3ccc4[nH]ncc4c3Cl)n2)cc(N2CCCC2=O)c1=O and give its measured IC50.
1 to 15 µM

Consider the compound O=C(CC1CCCO1)Nc1cccc(-c2nsc(Nc3ccc4[nH]ncc4c3Cl)n2)c1 (stereo not drawn) and give its measured IC50.
< 1 µM

Consider the compound Cn1nccc1C(=O)NC[C@@H]1CCCN1c1nsc(Nc2ccc3[nH]ncc3c2Cl)n1 and give its measured IC50.
15 to 30 µM

Consider the compound Cc1coc(-c2cncc(-c3nsc(Nc4ccc5[nH]ncc5c4Cl)n3)c2)n1 and give its measured IC50.
> 30 µM

Consider the compound CC(C)NC(=O)c1cc(-c2nsc(Nc3ccc4[nH]ncc4c3Cl)n2)ccc1F and give its measured IC50.
< 1 µM

---

- TARGET OF ASSAY: GST-tagged human ROCK1 catalytic domain 1-477 (Homo sapiens, UniProt Q13464)
- Construct: human ROCK1 catalytic domain 1-477 from Carna Biosciences (cat #01-109); purchased Carna Biosciences 01-109; host or cells: baculovirus expression system
- Sequence (Q13464 1-477): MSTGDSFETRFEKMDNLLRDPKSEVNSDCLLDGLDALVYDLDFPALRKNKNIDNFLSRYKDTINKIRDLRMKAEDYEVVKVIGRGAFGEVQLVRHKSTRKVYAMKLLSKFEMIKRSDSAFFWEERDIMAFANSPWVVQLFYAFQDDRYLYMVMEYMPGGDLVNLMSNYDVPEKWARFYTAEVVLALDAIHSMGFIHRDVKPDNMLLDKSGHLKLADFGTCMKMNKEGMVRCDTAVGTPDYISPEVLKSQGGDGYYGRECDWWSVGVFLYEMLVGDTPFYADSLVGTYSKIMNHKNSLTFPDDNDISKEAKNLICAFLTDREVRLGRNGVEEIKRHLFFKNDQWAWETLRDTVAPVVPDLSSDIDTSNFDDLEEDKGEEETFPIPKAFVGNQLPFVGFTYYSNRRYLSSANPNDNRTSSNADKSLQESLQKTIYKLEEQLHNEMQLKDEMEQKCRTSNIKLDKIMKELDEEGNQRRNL
- TEST SUMMARY: Isolated Enzyme Assay, ROCK1 (LANCE Ultra ULight-CREBtide FRET)
- Assay type: biochemical
- REPORTED CONDITIONS: isolated enzyme assay; 30 μM highest concentration tested; read-out: Results from Isolated Enzyme Assay IC50 (μM) ROCK1
ATTRIBUTE MEASURED: IC50

{"SMILES DATA": "CC1(C)CN(c2cccc(-c3nsc(Nc4ccc5[nH]ncc5c4Br)n3)c2)C(=O)O1", "TARGET OF ASSAY": "GST-tagged human ROCK1 catalytic domain 1-477 (Homo sapiens, UniProt Q13464)", "IC50": "< 1 µM"}
{"SMILES DATA": "Cn1nccc1C(=O)Nc1cccc(-c2nsc(Nc3ccc4[nH]ncc4c3C#N)n2)c1", "TARGET OF ASSAY": "GST-tagged human ROCK1 catalytic domain 1-477 (Homo sapiens, UniProt Q13464)", "IC50": "< 1 µM"}
{"SMILES DATA": "O=c1c2ccccc2ncn1-c1cccc(-c2nsc(Nc3ccc4[nH]ncc4c3Cl)n2)c1", "TARGET OF ASSAY": "GST-tagged human ROCK1 catalytic domain 1-477 (Homo sapiens, UniProt Q13464)", "IC50": "> 30 µM"}
{"SMILES DATA": "Cc1cc(C(=O)Nc2cccc(-c3nsc(Nc4ccc5[nH]ncc5c4Cl)n3)c2)n[nH]1", "TARGET OF ASSAY": "GST-tagged human ROCK1 catalytic domain 1-477 (Homo sapiens, UniProt Q13464)", "IC50": "< 1 µM"}
{"SMILES DATA": "COc1ncc(C(=O)Nc2cc(-c3nsc(Nc4ccc5[nH]ncc5c4Cl)n3)ccn2)cn1", "TARGET OF ASSAY": "GST-tagged human ROCK1 catalytic domain 1-477 (Homo sapiens, UniProt Q13464)", "IC50": "> 30 µM"}
{"SMILES DATA": "Cn1ccc(C(=O)Nc2cccc(-c3nsc(Nc4ccc5[nH]ncc5c4Cl)n3)c2)n1", "TARGET OF ASSAY": "GST-tagged human ROCK1 catalytic domain 1-477 (Homo sapiens, UniProt Q13464)", "IC50": "< 1 µM"}

Short answer please: IC50, GST-tagged human ROCK1 catalytic domain 1-477 (Homo sapiens, UniProt Q13464), entry Cn1ccnc1C(=O)Nc1cccc(-c2nsc(Nc3ccc4[nH]ncc4c3Cl)n2)c1
< 1 µM

Short answer please: IC50, GST-tagged human ROCK1 catalytic domain 1-477 (Homo sapiens, UniProt Q13464), entry CNC(=O)c1cc(-c2nsc(Nc3ccc4[nH]ncc4c3Cl)n2)ccc1F
< 1 µM

Short answer please: IC50, GST-tagged human ROCK1 catalytic domain 1-477 (Homo sapiens, UniProt Q13464), entry CCCOC(=O)Nc1cc(-c2nsc(Nc3ccc4[nH]ncc4c3Cl)n2)cn(C)c1=O
< 1 µM

---

- TARGET OF ASSAY: ROCK1 (Homo sapiens, UniProt Q13464)
- Construct: endogenous in cells; host or cells: HAP1 knockout cells
- Sequence (Q13464 whole entry): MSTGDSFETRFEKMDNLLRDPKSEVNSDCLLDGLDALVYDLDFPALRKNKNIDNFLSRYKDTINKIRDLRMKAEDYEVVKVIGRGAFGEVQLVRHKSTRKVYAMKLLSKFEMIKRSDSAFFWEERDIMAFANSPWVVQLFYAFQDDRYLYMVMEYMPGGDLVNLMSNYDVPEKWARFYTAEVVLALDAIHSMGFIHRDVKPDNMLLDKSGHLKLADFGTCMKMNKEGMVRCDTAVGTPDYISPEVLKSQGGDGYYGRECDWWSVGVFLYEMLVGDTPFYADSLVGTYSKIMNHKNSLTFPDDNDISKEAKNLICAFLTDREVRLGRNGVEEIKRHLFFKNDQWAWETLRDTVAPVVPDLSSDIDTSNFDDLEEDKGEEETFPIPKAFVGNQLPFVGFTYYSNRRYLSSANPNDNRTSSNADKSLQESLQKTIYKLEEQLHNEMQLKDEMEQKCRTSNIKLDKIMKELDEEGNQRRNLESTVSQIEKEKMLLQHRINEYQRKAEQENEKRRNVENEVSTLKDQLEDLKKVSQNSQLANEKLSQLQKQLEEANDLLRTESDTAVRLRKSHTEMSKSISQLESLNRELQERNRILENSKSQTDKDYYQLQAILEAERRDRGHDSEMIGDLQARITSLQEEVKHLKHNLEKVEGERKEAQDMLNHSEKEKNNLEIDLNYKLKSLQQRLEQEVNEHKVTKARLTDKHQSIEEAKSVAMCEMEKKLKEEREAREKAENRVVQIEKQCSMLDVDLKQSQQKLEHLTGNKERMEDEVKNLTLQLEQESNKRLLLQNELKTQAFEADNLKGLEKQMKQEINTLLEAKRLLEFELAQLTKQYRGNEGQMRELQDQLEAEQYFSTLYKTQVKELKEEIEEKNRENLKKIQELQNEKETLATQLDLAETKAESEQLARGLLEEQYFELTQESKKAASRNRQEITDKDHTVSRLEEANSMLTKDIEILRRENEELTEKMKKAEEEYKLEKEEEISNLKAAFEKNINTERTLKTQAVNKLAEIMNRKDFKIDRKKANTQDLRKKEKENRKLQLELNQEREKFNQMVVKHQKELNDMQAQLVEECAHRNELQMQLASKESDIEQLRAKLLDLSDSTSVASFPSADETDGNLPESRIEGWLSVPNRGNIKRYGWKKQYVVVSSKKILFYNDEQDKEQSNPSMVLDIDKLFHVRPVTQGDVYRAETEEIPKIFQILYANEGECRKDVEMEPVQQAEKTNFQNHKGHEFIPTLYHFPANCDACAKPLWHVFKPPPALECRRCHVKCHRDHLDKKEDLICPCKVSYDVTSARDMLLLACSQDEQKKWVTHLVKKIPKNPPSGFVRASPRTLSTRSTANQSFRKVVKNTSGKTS
- TEST SUMMARY: Cell-Based Assay, ROCK1 (HAP1 knockout cells, phospho-MYPT1 Thr853 ELISA)
- REPORTED CONDITIONS: numeric bound, read-out: Results from Cell-Based Assay IC50 (μM) ROCK1
- Experimental: Part II—Procedure for Determining ROCK Inhibition Ability of Test Compounds Using a Cell-Base Assay The Cell-Based Assay for determining ROCK inhibition ability of test compounds utilized a genetically modified HAP1 cell line engineered to eliminate expression of either ROCK1 or ROCK2. In the procedure, HAP1 knockout cells are grown in Iscove's Modified Dulbecco's Medium that is additionally supplemented with 10% fetal bovine and 1x antibiotic-antimycotic mixture. […] Absorbance is read at 450 OD. […]
Reported IC50 values are given for each entry in this list.

{"SMILES DATA": "CNC(=O)c1cc(-c2nsc(Nc3ccc4[nH]ncc4c3Cl)n2)cn(C)c1=O", "TARGET OF ASSAY": "ROCK1 (Homo sapiens, UniProt Q13464)", "IC50": "> 10 µM"}

Next item in the queue.
Consider the molecule Cc1cc(NC(=O)c2cocn2)cc(-c2nsc(Nc3ccc4[nH]ncc4c3Cl)n2)n1 and give its measured IC50.
> 10 µM

---

- TARGET OF ASSAY: GST-tagged human ROCK1 catalytic domain 1-477 (Homo sapiens)
- Construct: human ROCK1 catalytic domain 1-477 from Carna Biosciences (cat #01-109); purchased Carna Biosciences 01-109; host or cells: baculovirus expression system
- TEST SUMMARY: Isolated Enzyme Assay, ROCK1 (LANCE Ultra ULight-CREBtide FRET)
- Format: biochemical
- REPORTED CONDITIONS: isolated enzyme assay; 30 μM highest concentration tested; read-out: Results from Isolated Enzyme Assay IC50 (μM) ROCK1
Reported IC50 values are given for each entry in this list.

Consider the compound COc1ncc(-c2nsc(Nc3ccc4[nH]ncc4c3Cl)n2)cc1NC(=O)c1ccnn1C [IV-106] and give its measured IC50.
> 30 µM

Consider the compound Cn1cc(-c2nsc(Nc3ccc4[nH]ncc4c3Cl)n2)cc(NC(=O)c2ccccc2)c1=O [IV-39] and give its measured IC50.
1 to 15 µM

Consider the compound O=C(Nc1cc(-c2nsc(Nc3ccc4[nH]ncc4c3Cl)n2)ccn1)c1cnco1 [IV-28] and give its measured IC50.
> 30 µM

Consider the compound O=C(Nc1cc(-c2nsc(Nc3ccc4[nH]ncc4c3Cl)n2)ccn1)c1cocn1 [IV-96] and give its measured IC50.
> 30 µM

Consider the compound Cn1ccnc1-c1cccc(-c2nsc(Nc3ccc4[nH]ncc4c3Cl)n2)c1 [IV-88] and give its measured IC50.
< 1 µM

---

Reported IC50 values are given for each entry in this list.
- TARGET OF ASSAY: GST-tagged human ROCK2 catalytic domain 1-553 (Homo sapiens, UniProt O75116)
- Construct: GST-tagged human ROCK2 catalytic domain 1-553 from Carna Biosciences (Cat #01-110); purchased Carna Biosciences 01-110; host or cells: baculovirus expression system
- TEST SUMMARY: Isolated Enzyme Assay, ROCK2 (LANCE Ultra ULight-CREBtide FRET)
- Format: biochemical
- REPORTED CONDITIONS: isolated enzyme assay; 30 μM highest concentration tested; read-out: Results from Isolated Enzyme Assay IC50 (μM) ROCK2

Below are worked cases with known answers.
{"SMILES DATA": "O=C(Cn1cc(Cl)cn1)Nc1cccc(-c2nsc(Nc3ccc4[nH]ncc4c3Cl)n2)c1", "IC50": "> 30 µM"}
{"SMILES DATA": "CC1(C)CCN(c2cccc(-c3nsc(Nc4ccc5[nH]ncc5c4Cl)n3)c2)C1=O", "IC50": "< 1 µM"}
{"SMILES DATA": "Cc1coc(-c2cccc(-c3nsc(Nc4cc5cn[nH]c5cc4F)n3)c2)n1", "IC50": "> 30 µM"}
{"SMILES DATA": "Cc1cnc(-c2cncc(-c3nsc(Nc4ccc5[nH]ncc5c4Cl)n3)c2)o1", "IC50": "> 30 µM"}
{"SMILES DATA": "Cc1coc(-c2cc(-c3nsc(Nc4ccc5[nH]ncc5c4Cl)n3)ccn2)n1", "IC50": "< 1 µM"}
{"SMILES DATA": "CC1(C)CN(c2cccc(-c3nsc(Nc4ccc5[nH]ncc5c4Cl)n3)c2)C(=O)O1", "IC50": "< 1 µM"}

Consider the molecule CN1CCC(NC(=O)c2cc(-c3nsc(Nc4ccc5[nH]ncc5c4Cl)n3)ccc2F)CC1 and give its measured IC50.
< 1 µM

Consider the molecule CC1(C)CN(c2cccc(-c3nsc(Nc4ccc5[nH]ncc5c4C#N)n3)c2)C(=O)O1 and give its measured IC50.
< 1 µM

Consider the molecule Cc1cn2cccc(-c3nsc(Nc4ccc5[nH]ncc5c4Cl)n3)c2n1 and give its measured IC50.
< 1 µM
